The measured values listed here are drawn from paper PMC3058861.

Assayed system: hSULT2A1-DHEAS complex (Homo sapiens)
Sequence (Q06520 whole entry, one chain of several): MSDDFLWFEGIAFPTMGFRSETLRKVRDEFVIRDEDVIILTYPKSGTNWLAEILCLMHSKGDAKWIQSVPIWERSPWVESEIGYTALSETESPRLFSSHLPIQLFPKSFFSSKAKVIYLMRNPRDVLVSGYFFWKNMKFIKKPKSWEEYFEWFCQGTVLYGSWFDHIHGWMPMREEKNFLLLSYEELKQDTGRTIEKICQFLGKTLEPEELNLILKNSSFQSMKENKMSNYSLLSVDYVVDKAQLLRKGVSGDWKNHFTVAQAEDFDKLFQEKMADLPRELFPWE
Format: binding
Cond: read-out: Kd1(app); enzyme pretreated with 80 μM (0.08 mM) DHEAS
Assay readout: Kd

Which measured Kd belongs to Nc1ncnc2c1ncn2[C@@H]1O[C@H](COP(=O)(O)OS(=O)(=O)O)[C@@H](OP(=O)(O)O)[C@H]1O [PAPS, 3′-phosphoadenosine 5′-phosphosulfate] , tested on hSULT2A1-DHEAS complex (Homo sapiens)? 1.3 µM
